- protocol summary: in vitro
- experimental conditions: human
# key: entry, value: IC50 at 48 h
property label: IC50 at 48 h

[[record]]
molecule = "O=P(c1ccccc1)(c1ccccc1)[C@@H]1N[C@]1(Sc1ccccc1)c1ccccc1 (relative stereo) [Compound 14c]"
property_label = "IC50 at 48 h"
observed = "4.9 µM"

[[record]]
molecule = "C[C@@]1(Oc2ccccc2)N[C@H]1P(=O)(c1ccccc1)c1ccccc1 (relative stereo) [Compound 10a]"
property_label = "IC50 at 48 h"
observed = "> 50 µM"

[[record]]
molecule = "C[C@@]1(OCC(F)(F)F)N[C@H]1P(=O)(c1ccccc1)c1ccccc1 (relative stereo) [Compound 7]"
property_label = "IC50 at 48 h"
observed = "> 50 µM"


// provenance: paper PMC7435673
